target: UniProt:Q13627
READOUT_NAME: IC50

Entry NS(=O)(=O)c1ccc(Nc2nc(OCC3CCCCC3)c3nc[nH]c3n2)cc1 : reported IC50 = ?
900 nM

* * *

Read-out record for Mitogen-activated protein kinase 11 (Homo sapiens): ΔTm
Report as a plain number; the unit °C is understood.

Answered cases to consult:
[[record]]
compound = "O=C(Nc1cccc(Nc2cc(Nc3cccc(C(F)(F)F)c3)ncn2)c1)C1CC1"
tested_on = "Mitogen-activated protein kinase 11 (Homo sapiens)"
readout_name = "ΔTm"
units_symbol = "°C"
value_reported = 2.8

[[record]]
compound = "COc1cc(O)c2c(c1)oc(=O)c1c3cc(O)c(O)cc3oc21 [WEDELOLACTONE]"
tested_on = "Mitogen-activated protein kinase 11 (Homo sapiens)"
readout_name = "ΔTm"
units_symbol = "°C"
value_reported = 1.5

[[record]]
compound = "O=c1c(-c2ccc(F)cc2)c(-c2ccncc2)[nH]n1-c1ccc(Cl)cc1"
tested_on = "Mitogen-activated protein kinase 11 (Homo sapiens)"
readout_name = "ΔTm"
units_symbol = "°C"
value_reported = 7.1


Entry Nc1n[nH]c2nc3ccccc3nc12 [QUINOXALINE1] : reported ΔTm = ?
1

Entry Clc1ccc(Nc2nnc(Cc3ccncc3)c3ccccc23)cc1 : reported ΔTm = ?
0.5

Entry C[S+]([O-])c1ccc(CSc2nc(-c3ccc(F)cc3)c(-c3ccncc3)[nH]2)cc1 (stereo not given) : reported ΔTm = ?
1.5

Entry N#C/C(=C\c1ccc(O)c(O)c1)C(=O)Nc1ccccc1 : reported ΔTm = ?
0.2

Entry C/C(O)=C(\C#N)C(=O)Nc1cc(Br)ccc1Br : reported ΔTm = ?
0.3

Entry Cc1c2ccncc2c(C)c2c1[nH]c1ccccc12 [ELLIPTECINE] : reported ΔTm = ?
0.6

Entry NS(=O)(=O)c1ccc(Nc2nc(OCC3CCCCC3)c3nc[nH]c3n2)cc1 : reported ΔTm = ?
0.6

* * *

Read-out record for Calcium/calmodulin-dependent protein kinase type 1D (Homo sapiens): ΔTm
Report as a plain number; the unit °C is understood.

Answered cases to consult:
[[record]]
mol = "Cc1ccc(NC(=O)c2ccc(CN3CCN(C)CC3)cc2)cc1Nc1nccc(-c2cccnc2)n1"
units_symbol = "°C"
value_reported = 0.4

[[record]]
mol = "C#Cc1cccc(Nc2ncnc3cc(OCCOC)c(OCCOC)cc23)c1"
units_symbol = "°C"
value_reported = 0.1

[[record]]
mol = "O=C(O)c1cc(N(Cc2ccccc2O)Cc2cc(O)ccc2O)ccc1O"
units_symbol = "°C"
value_reported = 0.1

[[record]]
mol = "N#C/C(=C\\c1ccc(O)c(O)c1)C(=O)Nc1ccccc1"
units_symbol = "°C"
value_reported = 0.3

[[record]]
mol = "NC1=N/C(=C2/CCNC(=O)c3[nH]ccc32)C(=O)N1"
units_symbol = "°C"
value_reported = 0

[[record]]
mol = "COc1cc2ncnc(Nc3ccc(F)c(Cl)c3)c2cc1OCCCN1CCOCC1"
units_symbol = "°C"
value_reported = 0.4

[[record]]
mol = "CN(C)CCCn1cc(C2=C(c3c[nH]c4ccccc34)C(=O)NC2=O)c2ccccc21"
units_symbol = "°C"
value_reported = 1.1

[[record]]
mol = "Cc1cc2ncc(-c3ccccc3)nc2cc1C"
units_symbol = "°C"
value_reported = 0.6

[[record]]
mol = "O=c1c(-c2ccc(F)cc2)c(-c2ccncc2)[nH]n1-c1ccc(Cl)cc1"
units_symbol = "°C"
value_reported = 0.1

[[record]]
mol = "NC(=O)c1ccc2[nH]c(-c3ccc(Oc4ccc(Cl)cc4)cc3)nc2c1"
units_symbol = "°C"
value_reported = 1.1


Entry CCCNC(=O)Nc1ccc(Oc2ncnc3cc(OC)c(OC)cc23)cc1Cl : reported ΔTm = ?
0.5

Entry Cc1ccc(NC2=CC(=O)c3sc(C)nc3C2=O)cc1 : reported ΔTm = ?
-1.6

* * *

Read-out record for Serine/threonine-protein kinase PAK 4 (Homo sapiens) (UniProt O96013): ΔTm
Include the unit after the number when you answer.

Answered cases to consult:
[[record]]
molecule = "O=c1c(-c2ccc(F)cc2)c(-c2ccncc2)[nH]n1-c1ccc(Cl)cc1"
readout_name = "ΔTm"
value_reported = "0.7 °C"

[[record]]
molecule = "O=c1cc(-c2ccc(O)cc2)oc2cc(O)cc(O)c12"
readout_name = "ΔTm"
value_reported = "0.3 °C"

[[record]]
molecule = "O=S(=O)(NCCNC/C=C/c1ccc(Br)cc1)c1cccc2cnccc12"
readout_name = "ΔTm"
value_reported = "1 °C"


Recall the recorded ΔTm for O=c1c(-c2ccc(O)cc2)coc2cc(O)cc(O)c12 with Serine/threonine-protein kinase PAK 4 (Homo sapiens) (UniProt O96013) and state it.
Sequence (O96013 whole entry, looked up): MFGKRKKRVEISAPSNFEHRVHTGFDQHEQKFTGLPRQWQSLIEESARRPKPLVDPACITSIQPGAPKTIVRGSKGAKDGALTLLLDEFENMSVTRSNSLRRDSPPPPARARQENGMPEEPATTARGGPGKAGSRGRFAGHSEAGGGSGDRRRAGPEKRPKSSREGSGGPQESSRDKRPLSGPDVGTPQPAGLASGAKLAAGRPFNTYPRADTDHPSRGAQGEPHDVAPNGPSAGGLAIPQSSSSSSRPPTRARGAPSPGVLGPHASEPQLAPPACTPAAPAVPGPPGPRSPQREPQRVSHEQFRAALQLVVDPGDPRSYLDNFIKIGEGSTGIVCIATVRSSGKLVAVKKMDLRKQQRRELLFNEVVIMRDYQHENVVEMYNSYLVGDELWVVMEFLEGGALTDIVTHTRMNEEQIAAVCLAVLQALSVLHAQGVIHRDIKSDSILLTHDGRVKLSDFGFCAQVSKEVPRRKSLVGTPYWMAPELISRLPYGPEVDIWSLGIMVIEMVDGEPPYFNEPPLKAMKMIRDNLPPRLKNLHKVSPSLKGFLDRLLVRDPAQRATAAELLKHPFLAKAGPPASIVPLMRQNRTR
0.8 °C

Recall the recorded ΔTm for COc1cccc(-c2cc(=O)c3ccccc3o2)c1N with Serine/threonine-protein kinase PAK 4 (Homo sapiens) (UniProt O96013) and state it.
0.5 °C

Recall the recorded ΔTm for COc1cc(O)c2c(c1)oc(=O)c1c3cc(O)c(O)cc3oc21 [WEDELOLACTONE] with Serine/threonine-protein kinase PAK 4 (Homo sapiens) (UniProt O96013) and state it.
1.6 °C

Recall the recorded ΔTm for O=C1NC(=O)C(c2cn(CCCn3ccnc3)c3ccccc23)=C1Nc1ccccc1 with Serine/threonine-protein kinase PAK 4 (Homo sapiens) (UniProt O96013) and state it.
0.7 °C

Recall the recorded ΔTm for Cc1c2ccncc2c(C)c2c1[nH]c1ccccc12 [ELLIPTECINE] with Serine/threonine-protein kinase PAK 4 (Homo sapiens) (UniProt O96013) and state it.
0.7 °C

Recall the recorded ΔTm for Nc1n[nH]c2nnc(-c3c(-c4ccccc4)nn4ccccc34)cc12 with Serine/threonine-protein kinase PAK 4 (Homo sapiens) (UniProt O96013) and state it.
-0.1 °C

Recall the recorded ΔTm for Cc1ccc(NC(=O)c2ccc(CN3CCN(C)CC3)cc2)cc1Nc1nccc(-c2cccnc2)n1 with Serine/threonine-protein kinase PAK 4 (Homo sapiens) (UniProt O96013) and state it.
0.4 °C

* * *

target: Eukaryotic elongation factor 2 kinase (Homo sapiens)
Sequence (O00418 whole entry): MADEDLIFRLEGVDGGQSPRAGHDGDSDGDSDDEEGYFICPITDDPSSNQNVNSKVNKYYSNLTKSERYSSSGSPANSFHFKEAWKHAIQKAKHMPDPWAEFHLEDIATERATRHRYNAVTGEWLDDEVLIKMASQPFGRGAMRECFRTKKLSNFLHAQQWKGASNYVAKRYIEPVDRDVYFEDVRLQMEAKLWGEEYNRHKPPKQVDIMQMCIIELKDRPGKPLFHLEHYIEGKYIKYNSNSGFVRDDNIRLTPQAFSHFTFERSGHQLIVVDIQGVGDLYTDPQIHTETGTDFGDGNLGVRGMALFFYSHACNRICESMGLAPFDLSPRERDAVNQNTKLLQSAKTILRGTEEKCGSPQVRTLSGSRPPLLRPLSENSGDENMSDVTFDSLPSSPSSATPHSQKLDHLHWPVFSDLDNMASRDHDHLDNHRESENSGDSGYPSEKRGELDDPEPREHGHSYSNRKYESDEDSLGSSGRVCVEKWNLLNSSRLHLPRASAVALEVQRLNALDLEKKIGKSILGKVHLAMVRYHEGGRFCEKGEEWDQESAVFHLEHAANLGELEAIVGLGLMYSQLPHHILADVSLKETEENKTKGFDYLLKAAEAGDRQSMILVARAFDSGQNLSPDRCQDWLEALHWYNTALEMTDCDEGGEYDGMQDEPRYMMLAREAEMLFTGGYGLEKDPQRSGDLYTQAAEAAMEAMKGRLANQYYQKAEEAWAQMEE
READOUT_NAME: IC50 (nM)
Report as a plain number; the unit nM is understood.

Recall the recorded IC50 for Cc1cc(C=C2C(=O)C=CC2=O)cc(C)c1O with Eukaryotic elongation factor 2 kinase (Homo sapiens) and state it.
440

* * *

target: cAMP-dependent protein kinase catalytic subunit alpha (Homo sapiens)
READOUT_NAME: ΔTm
Include the unit after the number when you answer.

Answered cases to consult:
[[record]]
molecule = "C[C@@H](N)[C@H]1CC[C@H](C(=O)Nc2ccncc2)CC1"
value_reported = "0.4 °C"

[[record]]
molecule = "CN(c1cccnc1)c1cc2c(Nc3ccc(F)c(Cl)c3)c(C#N)cnc2cn1"
value_reported = "2.2 °C"


Entry COc1cc2ncnc(Nc3cccc(O)c3)c2cc1OC : reported ΔTm = ?
0.1 °C

Entry Cc1nc(N)sc1-c1ccnc(Nc2cccc([N+](=O)[O-])c2)n1 : reported ΔTm = ?
4.8 °C

Entry Cc1cncc2cccc(S(=O)(=O)N3CCCNC[C@@H]3C)c12 : reported ΔTm = ?
3.5 °C

Entry COc1cc2ncnc(Nc3cccc(Br)c3)c2cc1OC : reported ΔTm = ?
0.4 °C

Entry CCCCc1c(-c2ccc(O)cc2)[nH]c2nccnc12 : reported ΔTm = ?
3.8 °C

Entry NC1=N/C(=C2/CCNC(=O)c3[nH]ccc32)C(=O)N1 : reported ΔTm = ?
0 °C

Entry NS(=O)(=O)c1ccc(Nc2nc(OCC3CCCCC3)c3nc[nH]c3n2)cc1 : reported ΔTm = ?
-0.1 °C

Entry O=C1Nc2ccccc2/C1=C/c1cnc[nH]1 : reported ΔTm = ?
1.6 °C

Entry Cc1nc2sccn2c(=O)c1CCN1CCC(=C(c2ccccc2)c2ccc(F)cc2)CC1 : reported ΔTm = ?
1.6 °C

Entry Oc1cc(O)cc(/C=C/c2ccc(O)c(O)c2)c1 : reported ΔTm = ?
2.7 °C

Entry Cc1cc(C=C2C(=O)C=CC2=O)cc(C)c1O : reported ΔTm = ?
0.5 °C

Entry OC[C@H]1O[C@@H](n2cnc3cc(Cl)c(Cl)cc32)[C@H](O)[C@@H]1O : reported ΔTm = ?
0.4 °C

Entry N#CCCc1ccc2c(c1)-c1[nH]c3ccc([N+](=O)[O-])cc3c1CC(=O)N2 : reported ΔTm = ?
1.1 °C

* * *

biological target: Serine/threonine-protein kinase 16 (Homo sapiens) (UniProt O75716)
Sequence (O75716 whole entry): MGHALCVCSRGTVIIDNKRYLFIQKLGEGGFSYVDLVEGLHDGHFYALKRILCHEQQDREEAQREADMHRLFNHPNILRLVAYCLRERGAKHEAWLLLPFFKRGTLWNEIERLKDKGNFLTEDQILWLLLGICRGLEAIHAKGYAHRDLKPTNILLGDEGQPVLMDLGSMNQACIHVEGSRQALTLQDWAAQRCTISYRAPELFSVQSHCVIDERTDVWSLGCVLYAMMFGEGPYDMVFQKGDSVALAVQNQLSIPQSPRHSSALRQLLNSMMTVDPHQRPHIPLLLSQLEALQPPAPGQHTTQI
# binning rule on ΔTm: 1 (below 1 °C), 2 (1 °C to below 4 °C), 3 (4 °C or more)

Answered cases to consult:
[[record]]
mol = "O=[N+]([O-])c1ccc(-c2nc(-c3ccc(F)cc3)c(-c3ccncc3)[nH]2)cc1"
label = 1

[[record]]
mol = "O=C1Nc2ccccc2/C1=C\\c1ccc[nH]1"
label = 3

[[record]]
mol = "O=S(=O)(c1cccc2c(Cl)cccc12)N1CCCNCC1"
label = 2

[[record]]
mol = "O=C1Nc2ccc(S(=O)(=O)O)cc2/C1=C1/Nc2ccccc2/C1=N\\O"
label = 3

[[record]]
mol = "CC(C)n1cnc2c(NCc3ccccc3O)nc(NCCCO)nc21"
label = 2


Which ΔTm band matches Cc1ccc(NC(=O)c2ccc(CN3CCN(C)CC3)cc2)cc1Nc1nccc(-c2cccnc2)n1 ?
2

Which ΔTm band matches Nc1cccc(-c2cc3c(Oc4cccc(O)c4)ncnc3[nH]2)c1 ?
2

Which ΔTm band matches COc1cccc(-c2cc(=O)c3ccccc3o2)c1N ?
1

Which ΔTm band matches N#C/C(=C1/Nc2ccccc2S1)c1ccnc(NCCc2cccnc2)n1 ?
3

Which ΔTm band matches C/C(O)=C(\C#N)C(=O)Nc1cc(Br)ccc1Br ?
1
